assay: Plasma pharmacokinetics after IV, PO or SC administration; details: CD-1, mouse, plasma, po, 10 mg/kg, AUC0-inf, PO 10 mg/kg, individual mice n1-n3
parameter measured: AUC0-inf (ng·h/mL)
Supply the numeric figure in ng·h/mL, leaving out any unit text.

Q: Recorded AUC0-inf of CC(N)Cc1c[nH]c2ccc(OCc3cccs3)cc12 (stereo not shown) [BW] , please.
Ans: 239

====

target: 5-HT5A (Homo sapiens, UniProt P47898)
Sequence (P47898 whole entry, species assumed): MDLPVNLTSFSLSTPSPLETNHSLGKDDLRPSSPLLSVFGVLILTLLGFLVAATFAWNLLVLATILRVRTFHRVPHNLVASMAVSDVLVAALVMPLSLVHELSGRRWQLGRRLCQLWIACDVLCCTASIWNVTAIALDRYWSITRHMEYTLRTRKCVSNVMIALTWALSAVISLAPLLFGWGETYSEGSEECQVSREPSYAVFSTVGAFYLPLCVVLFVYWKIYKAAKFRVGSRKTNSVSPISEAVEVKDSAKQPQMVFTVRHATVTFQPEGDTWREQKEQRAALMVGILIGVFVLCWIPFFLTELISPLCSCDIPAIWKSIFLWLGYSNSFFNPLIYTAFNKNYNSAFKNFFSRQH
parameter measured: pIC50
Field pIC50 (float): negative decimal logarithm of the concentration in molar.

Q: Name the recorded pIC50 for CC(N)Cc1c[nH]c2ccc(OCc3cccs3)cc12 (stereo not shown) [BW] .
Ans: 5.86
